cytotoxicity at 70.5 h: recorded values
# Assay summary: Human HepG2 cell viability assay in 384 well format
# Assay type: toxicity, cell-based
# Design: dose 125 nL, time 70.5 hour; concentration not given beside the values
# Stated conditions: HepG2 cells, read-out: Inhibition

> print(dat)
                                   compound                property  observed.result
1  Cc1c(-c2nc3cc(S(=O)(=O)N4CCCC4)ccc3n2C)cnn1C  cytotoxicity at 70.5 h           -22.4%
2      NC[C@H]1[C@H]2CN(Cc3ccccc3)C[C@@H]12  cytotoxicity at 70.5 h           0.818%
3  CCc1ccc2c(c1)C(CCNC(=O)Cc1ccc(F)cc1)C(=O)N2 (centres undefined)  cytotoxicity at 70.5 h            11.8%
4  CC(C)COc1cncc(NC(CO)c2ccco2)n1 (centres undefined)  cytotoxicity at 70.5 h            11.4%
5  Cc1ccc(C(C(=O)N(C)CCc2cn[nH]c2)N(C)C)cc1 (centres undefined)  cytotoxicity at 70.5 h           -8.45%
6        Cc1ccc(N(CCC#N)C(=O)CCc2cscn2)cc1C  cytotoxicity at 70.5 h           -3.27%

Which measured cytotoxicity at 70.5 h value corresponds to `CCC[C@H]1CN(C2CCOCC2)C[C@@H]1NC(=O)CCn1ccnc1C` ? 3.94%

State the recorded cytotoxicity at 70.5 h for this entry: CCS(=O)(=O)CC(=O)NC1CCc2nccn2C1 (centres undefined) -4.08%

====

// reported cytotoxicity at 70.5 h for each item listed
# Assay summary: Human HepG2 cell viability assay in 384 well format
# Assay type: toxicity, cell-based
# Design: dose 125 nL, time 70.5 hour; concentration not given beside the values
# Stated conditions: HepG2 cells, read-out: Inhibition
Answer format: numeric, % implied, no suffix.

Solved entries:
> print(dat)
                                   compound  unit.name  observed.result
1  CCN(CC1CN(Cc2ccn(C(C)C)n2)CCO1)c1cccnn1 (stereo unspecified)          %             1.41
2  COc1ncccc1C(=O)N1CC[C@H]2C[C@@H](c3ccncn3)O[C@@H]2C1          %              -18
3  O=C(Nc1cccc2c1CCCC2)C1CCCN1c1nccs1 (stereo unspecified)          %             2.35
4  CNC(=O)c1ccnc(N2CCCC(COc3cccc(C)c3)C2)c1 (stereo unspecified)          %            -20.4
5         CCCOc1cc(F)ccc1NC(=O)NCc1noc(C)n1          %            -3.88
6  CNC(=O)C1CCCCN1C(=O)c1csc(-c2ccc(C)o2)n1 (stereo unspecified)          %            -6.71
7       Cc1cccc(O[C@H]2COCCN(C3CCOCC3)C2)n1          %            -9.61
8  CNC(=O)c1ccc(C2CCCN(C(=O)c3c(C)noc3C)C2)nc1 (stereo unspecified)          %            -7.86

Could you tell me which cytotoxicity at 70.5 h is on file for `CC(C)C[C@H](NC(=O)c1cc(-c2cccn2C)n[nH]1)C(N)=O` ? -0.791

// cytotoxicity at 70.5 h lookup, key: `CCN(Cc1ccco1)C(=O)C1=NN(c2ccccc2)C(=O)CN1` 17.6

What value of measured cytotoxicity at 70.5 h is listed for Cc1cc(CN(C)C(C(=O)O)c2cccc(C(F)(F)F)c2)on1 (stereo unspecified) ? -7.95

Any idea what its cytotoxicity at 70.5 h is? The compound is CCn1ncc(C(=O)N2CCN(CC3CCCO3)CC2)c1C (stereo unspecified) -0.538

Recorded cytotoxicity at 70.5 h for `COc1ccc(CC(=O)NC2(C#N)CCOCC2)c(Cl)c1` , please? 3.22

Can you share its cytotoxicity at 70.5 h? I mean this compound: Cc1noc2ncc(C(=O)N3CCCC3c3ccncc3)cc12 (stereo unspecified) 33.6

====

# Assay summary: Human HepG2 cell viability assay in 384 well format
# Type: toxicity, cell-based
# Set-up: dose 125 nL, time 70.5 hour; concentration not given beside the values
# Stated conditions: HepG2 cells, read-out: Inhibition
Property: cytotoxicity at 70.5 h; scope: individual molecules
Hi! Could you send only the number? It should be in %, unit omitted.

> print(dat)
                                   molecule                property  observed.result
1  OC1(c2ccc(F)cc2)CCN(Cc2ccccc2N2CCCC2)CC1  cytotoxicity at 70.5 h             52.6
2        Cc1nc(-c2ccccc2C)n(CC(=O)NC(C)C)n1  cytotoxicity at 70.5 h             12.9
3  CCc1cnc(N2CC[C@H]3[C@@H]2CCC(=O)N3c2cccnc2)nc1  cytotoxicity at 70.5 h            -7.03

// query cytotoxicity at 70.5 h value for entry `Fc1ccc(Nc2ccc(C3CCN(Cc4ncc[nH]4)CC3)nc2)nc1` -4.32

Please give the measured cytotoxicity at 70.5 h for this molecule: `CCN1CCc2cc(C(=O)N(C)C)c(NCC3CC3)nc2CC1` 2.86

Look at this molecule and give its reported cytotoxicity at 70.5 h. O=C1CSC(c2ccc(O)c(Cl)c2)c2c(n(C3CCOCC3)[nH]c2=O)N1 (stereo unspecified) 6.82

# input molecule: CC(CCc1ccc(O)cc1)NC1CCN(S(C)(=O)=O)CC1 (stereo unspecified) ; wanted: its cytotoxicity at 70.5 h -4.22

What value of measured cytotoxicity at 70.5 h is listed for COc1ccc(-c2nc(CSC3CCCCNC3=O)co2)cc1 (stereo unspecified) ? -3.03

So what's the measured cytotoxicity at 70.5 h for this one? `Cc1ncsc1CCN(C)C(=O)c1ccc(CN2CCCCC2)cc1` 0.585

Endpoint output: cytotoxicity at 70.5 h of `Cc1ncccc1-c1cc2cccnc2n1CCCNC(=O)C1CC1` . Value? 1.77

Param item = CNc1cc(N2CCCC2CNCc2cscn2)ncn1 (stereo unspecified) ; retrieve measured cytotoxicity at 70.5 h. 1.05

====

We begin with a simple list: items and their reported cytotoxicity at 70.5 h.
# Assay summary: Human HepG2 cell viability assay in 384 well format
# Assay type: toxicity, cell-based
# Set-up: dose 125 nL, time 70.5 hour; concentration not given beside the values
# Stated conditions: HepG2 cells, read-out: Inhibition

Consider the worked cases shown below.
> print(dat)
                                   compound                property  observed.result
1    CN(C)CCNC(=O)c1nc2c(s1)CCCN2C(=O)C1CC1  cytotoxicity at 70.5 h           -2.21%
2  CC(C)c1nnsc1CN1CCc2[nH]nc(-c3ccc(F)c(F)c3)c2C1  cytotoxicity at 70.5 h           -11.6%

Okay, next one:
cytotoxicity at 70.5 h for O=C(NC1CCCN(c2ccccc2Cl)C1)c1nc(=O)[nH][nH]1 (centres undefined) ? 25.3%

====

cytotoxicity at 70.5 h overview
# Assay summary: Human HepG2 cell viability assay in 384 well format
# Assay type: toxicity, cell-based
# Set-up: dose 125 nL, time 70.5 hour; concentration not given beside the values
# Stated conditions: HepG2 cells, read-out: Inhibition
Give just the numeric value; % need not be written.

Record excerpt, results attached:
> print(dat)
                                   compound  observed.result
1  CC(C)CN1CC(O)CN(C(=O)c2cccc(C(F)(F)F)c2)CC1=O (configuration not stated)             13.3
2  Cc1nc(C2CCCNC2)cc(N2CCc3nc(N)sc3C2)n1 (configuration not stated)             17.4

Name the recorded cytotoxicity at 70.5 h for `CN(Cc1ccncc1)C1CC2(CCN(C(=O)c3ccnnc3)CC2)C1` . -9.02

Requested read-out: cytotoxicity at 70.5 h. Entry: `CCc1ccc(C(=O)O)cc1S(=O)(=O)Nc1ccc2c(c1)OCCO2` 4.02

So what does the record say about cytotoxicity at 70.5 h for `Cc1[nH]ccc1C(=O)N1CCC(c2nnc(Cn3ccnc3)n2C)CC1` ? -11.8

What value of cytotoxicity at 70.5 h has been recorded for this entry: CN(CCc1ccncc1)CC1CCCN1c1cccnn1 (configuration not stated) 25.1

Which value of cytotoxicity at 70.5 h has been reported for COc1ccc(CN2CCOC(CCc3ccnc(N)c3)C2)cc1 (configuration not stated) in the records? -0.852

====

# Assay summary: Human HepG2 cell viability assay in 384 well format
# Format: toxicity, cell-based
# Design: dose 125 nL, time 70.5 hour; concentration not given beside the values
# Stated conditions: HepG2 cells, read-out: Inhibition
Listed compounds paired with reported cytotoxicity at 70.5 h
Give your result in % as a bare value.

> print(dat)
                        compound                property  observed.result
1  CCn1c(O)c(C(C)=O)c2cc(C)ccc21  cytotoxicity at 70.5 h            -6.19

What value of measured cytotoxicity at 70.5 h is listed for O=C(NCC1CCCO1)c1cc(-c2ccncc2)c2cnccc2n1 (stereo not given) ? -8.71

Using the record for `CNC(=O)CN1CC[C@H]2CN(C(=O)c3ccccc3C)C[C@H]2C1` , report its cytotoxicity at 70.5 h. -3.61

I would be grateful if you could share the reported cytotoxicity at 70.5 h for COc1ccccc1CN(C)Cc1ccnc(C2CCCO2)n1 (stereo not given) . -2.34

If you can, please state the reported cytotoxicity at 70.5 h value of `O=C(CC1CCCCC1)N1CCC(c2ncc3c(n2)CCNC3)CC1` . -7.09

Give the measured cytotoxicity at 70.5 h of `O=C(O)c1ccc(-c2cscn2)cc1` . -6.68

Which cytotoxicity at 70.5 h value belongs to `Cc1ccc(C)c2c(O)cc(CNCC(N)=O)nc12` ? -0.585

Entry under review: `CC(C)CCOCCNC(=O)Nc1ccc(F)c(C(N)=O)c1` . Reported cytotoxicity at 70.5 h? -1.3

Request the reported cytotoxicity at 70.5 h associated with `CNc1nc2c(c(C(=O)N3CCCC3)n1)CN(C(=O)C1CCCC1)CC2` 15.7
